- Test Target: Inadl_9, Q8NI35
- Sequence (Q8NI35 1530-1615): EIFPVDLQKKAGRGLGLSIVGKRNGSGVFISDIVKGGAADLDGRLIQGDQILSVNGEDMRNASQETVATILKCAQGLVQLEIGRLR
- Assay Name: holdup assay
- Set-up: key: below the threshold = too weak to quantify, mostly under pKd 3.1 to 4
- Test Parameters: plain residues with an end cap or a label only (N-terminal biotin on a linker: ado-ado)
Documented pKd across a set of binders
Number, no unit, nothing else.

Example results:
[
  {
    "Binder": "MQHQRTHTRV [ZSCAN30, Q86W11]",
    "pKd": 3.62
  },
  {
    "Binder": "ARGPPRESEV [FAM110D, Q8TAY7]",
    "pKd": 3.53
  }
]

IN: Fill in: pKd of KRPEMTSSSV [MUC3A, MUC3B, Q02505;Q9H195] is ___
OUT: 3.6

IN: Param item: ARESQKVSHV [FAM110B, Q8TC76]
OUT: 3.9

IN: Here is the next binder: NIAESLESLV [PTPRZ1, P23471]
OUT: 3.76

IN: Let us now turn to APIAGFSSFV [SDK2, Q58EX2]
OUT: 3.96
